- TARGET_SYSTEM: CYP2C19 (Homo sapiens (Human))
- Sequence (P33261 whole entry): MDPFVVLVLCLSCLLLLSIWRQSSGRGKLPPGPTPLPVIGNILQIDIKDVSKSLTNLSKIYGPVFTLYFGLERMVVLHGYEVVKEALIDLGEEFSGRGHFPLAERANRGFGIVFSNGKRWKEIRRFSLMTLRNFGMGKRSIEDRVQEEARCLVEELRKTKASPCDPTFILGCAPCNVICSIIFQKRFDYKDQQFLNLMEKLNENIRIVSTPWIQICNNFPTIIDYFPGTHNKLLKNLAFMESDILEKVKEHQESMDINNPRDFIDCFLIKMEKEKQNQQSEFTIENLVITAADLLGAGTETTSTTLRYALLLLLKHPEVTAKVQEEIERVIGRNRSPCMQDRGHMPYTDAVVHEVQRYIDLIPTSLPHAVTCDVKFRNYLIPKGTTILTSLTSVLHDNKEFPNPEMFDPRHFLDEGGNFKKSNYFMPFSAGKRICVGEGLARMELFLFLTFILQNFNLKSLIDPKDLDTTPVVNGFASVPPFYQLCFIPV
- PROCEDURE_SUMMARY: Extracellular cytochrome P450 inhibition (microsomes)
- CONDITION_DESCRIPTION: 2C19, mephenytoin 4′-hydroxylation

COMPOUND	IC50 [µM]
CCC1(c2ccccc2)C(=O)NC(=O)N(Cc2ccccc2)C1=O (single isomer, unassigned; (-)) [(-)-N-3-benzyl-phenobarbital, reference compound]	8.7

---

- PROCEDURE_SUMMARY: Phase I single ascending dose study in humans, pharmacokinetics
- Format: in vivo, human
- CONDITION_DESCRIPTION: human, plasma; single oral 150 mg capsule, healthy humans, mean
Counter-ions that a name gives are not always drawn.
ENDPOINT: Cmax (ng/mL)

> print(dat)
                                   compound  assay.value
1  COc1ccc(CC(=O)O)cc1Oc1ccc(NC(=O)C(C)(C)C)cc1CSC(C)(C)C [Compound 2, sodium salt]         4630

---

- PROCEDURE_SUMMARY: Phase I single ascending dose study in humans, pharmacokinetics
- Assay type: in vivo, human
- CONDITION_DESCRIPTION: human, plasma; single oral 5 mg capsule, healthy humans, mean; read-out: Vz/F
Counter-ions that a name gives are not always drawn.
ENDPOINT: Vd/F (L)

> print(dat)
                                   compound  unit.tag  assay.value
1  COc1ccc(CC(=O)O)cc1Oc1ccc(NC(=O)C(C)(C)C)cc1CSC(C)(C)C [Compound 2, sodium salt]         L         1470

---

- PROCEDURE_SUMMARY: Phase I single ascending dose study in humans, pharmacokinetics
- Type: in vivo, human
- CONDITION_DESCRIPTION: human, plasma; single oral 15 mg capsule, healthy humans, mean
Where a name gives a salt, the structure may show the parent alone.
ENDPOINT: AUC(0-t) (ng·h/mL)

> print(dat)
                                   molecule  endpoint  assay.value
1  COc1ccc(CC(=O)O)cc1Oc1ccc(NC(=O)C(C)(C)C)cc1CSC(C)(C)C [Compound 2, sodium salt]  AUC(0-t)           17

---

- PROCEDURE_SUMMARY: Capsule formulation pharmacokinetics in male Beagle dogs
- Assay type: in vivo
- CONDITION_DESCRIPTION: male, Beagle, in vivo, po; dog, fasted, EC-Capsule (L100-55), 5 mg/kg
Where a name gives a salt, the structure may show the parent alone.
ENDPOINT: bioavailability (%)

> print(dat)
                                   molecule  unit.tag  assay.value
1  COc1ccc(CC(=O)O)cc1Oc1ccc(NC(=O)C(C)(C)C)cc1CSC(C)(C)C [Compound 2, sodium salt]         %          128

---

- PROCEDURE_SUMMARY: Phase I single ascending dose study in humans, pharmacokinetics
- Format: in vivo, human
- CONDITION_DESCRIPTION: human, plasma; single oral 5 mg capsule, healthy humans, mean
- Description: Example 22: Phase I Study in Humans This is a phase 1, Single-Center, Double-Blind Study of Compound 2 in healthy volunteers. To assess: (1) the safety and tolerability of single and multiple doses of Compound 2 following oral administration; and (2) the pharmacokinetics (PK) of Compound 2 after single and multiple doses; and (3) the effects of the pharmacodynamic (PD) responses in healthy subjects to Compound 2 as measured by a PGD2-induced eosinophil shape change assay (ESC). […]
Structures can show the parent of a compound that is named as a salt.
ENDPOINT: Tmax (min)

> print(dat)
                                   compound  assay.value
1  COc1ccc(CC(=O)O)cc1Oc1ccc(NC(=O)C(C)(C)C)cc1CSC(C)(C)C [Compound 2, sodium salt]         32.5

---

- PROCEDURE_SUMMARY: Regional dosing study in rat (pharmacokinetics)
- Format: in vivo
- CONDITION_DESCRIPTION: male, Sprague-Dawley, in vivo, po, 10 mg/kg
Structures can show the parent of a compound that is named as a salt.
ENDPOINT: Cmax (ng/mL)

> print(dat)
                                   compound  unit.tag  assay.value
1  COc1ccc(CC(=O)O)cc1Oc1ccc(NC(=O)C(C)(C)C)cc1CSC(C)(C)C [Compound 2, sodium salt]     ng/mL         3060

---

- TARGET_SYSTEM: CYP3A4 (Homo sapiens (Human), UniProt P08684)
- Sequence (P08684 whole entry): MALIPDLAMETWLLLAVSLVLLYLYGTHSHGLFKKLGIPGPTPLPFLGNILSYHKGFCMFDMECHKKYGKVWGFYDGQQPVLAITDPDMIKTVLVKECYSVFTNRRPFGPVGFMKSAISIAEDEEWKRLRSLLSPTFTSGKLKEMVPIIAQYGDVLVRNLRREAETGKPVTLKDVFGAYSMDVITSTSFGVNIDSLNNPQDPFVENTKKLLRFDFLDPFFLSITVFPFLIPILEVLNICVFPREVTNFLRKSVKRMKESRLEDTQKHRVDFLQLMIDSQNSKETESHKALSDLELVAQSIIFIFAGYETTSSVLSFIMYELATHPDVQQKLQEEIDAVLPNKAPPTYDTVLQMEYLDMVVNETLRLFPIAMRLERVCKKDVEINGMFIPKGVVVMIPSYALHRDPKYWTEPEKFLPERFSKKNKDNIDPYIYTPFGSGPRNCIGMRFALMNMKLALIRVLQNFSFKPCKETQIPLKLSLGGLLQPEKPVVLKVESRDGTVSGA
- PROCEDURE_SUMMARY: Extracellular cytochrome P450 inhibition (microsomes)
- Format: in vitro ADME
- CONDITION_DESCRIPTION: 3A4, midazolam 1-hydroxylation; read-out: IC50
pIC50: −log10 of the molar value. Where a name gives a salt, the structure may show the parent alone.
ENDPOINT: pIC50

> print(dat)
                                   compound  assay.value
1  COc1ccc(CC(=O)O)cc1Oc1ccc(NC(=O)C(C)(C)C)cc1CSC(C)(C)C [Compound 2, sodium salt]       < 4.30

---

- PROCEDURE_SUMMARY: Phase I single ascending dose study in humans, pharmacokinetics
- Type: in vivo, human
- CONDITION_DESCRIPTION: human, plasma; single oral 5 mg capsule, healthy humans, mean
- From the text: Example 22: Phase I Study in Humans This is a phase 1, Single-Center, Double-Blind Study of Compound 2 in healthy volunteers. To assess: (1) the safety and tolerability of single and multiple doses of Compound 2 following oral administration; and (2) the pharmacokinetics (PK) of Compound 2 after single and multiple doses; and (3) the effects of the pharmacodynamic (PD) responses in healthy subjects to Compound 2 as measured by a PGD2-induced eosinophil shape change assay (ESC). […]
Structures can show the parent of a compound that is named as a salt.
ENDPOINT: Cmax

> print(dat)
                                   molecule  assay.value
1  COc1ccc(CC(=O)O)cc1Oc1ccc(NC(=O)C(C)(C)C)cc1CSC(C)(C)C [Compound 2, sodium salt]   2.69 ng/mL

---

- PROCEDURE_SUMMARY: Regional dosing study in rat (pharmacokinetics)
- Format: in vivo
- CONDITION_DESCRIPTION: male, Sprague-Dawley, in vivo, iv, 2 mg/kg
Where a name gives a salt, the structure may show the parent alone.
ENDPOINT: half-life (h)

> print(dat)
                                   compound  assay.value
1  COc1ccc(CC(=O)O)cc1Oc1ccc(NC(=O)C(C)(C)C)cc1CSC(C)(C)C [Compound 2, sodium salt]            2

---

- PROCEDURE_SUMMARY: Plasma concentrations in guinea pig DK-PGD2 leukocyte influx study
- Assay type: in vivo
- CONDITION_DESCRIPTION: Hartley, 2.5 hours after oral 30 mg/kg
- Procedure: In the 2 hr study, intravenous DK-PGD2 (IV DK-PGD2) increased the number of peripheral blood leukocytes, mainly lymphocytes, which likely reflects recruitment from bone marrow. […] Plasma concentrations taken 2.5 hours following oral Compound 2 were 45 nM±36 and 120 nM±46 in the 10 mg/kg and 30 mg/kg dose groups, respectively. In the 18 hr guinea pig study, a significant increase in peripheral blood leukocytes was also observed following IV DK-PGD2 challenge. […]
Counter-ions that a name gives are not always drawn.
ENDPOINT: concentration at 2.5 h

> print(dat)
                                   molecule  assay.value
1  COc1ccc(CC(=O)O)cc1Oc1ccc(NC(=O)C(C)(C)C)cc1CSC(C)(C)C [Compound 2, sodium salt]       120 nM

---

- PROCEDURE_SUMMARY: Regional dosing study in rat (pharmacokinetics)
- Format: in vivo
- CONDITION_DESCRIPTION: male, Sprague-Dawley, in vivo, 10 mg/kg, ileum
Structures can show the parent of a compound that is named as a salt.
ENDPOINT: AUC (ng·h/mL)

> print(dat)
                                   compound  endpoint  assay.value
1  COc1ccc(CC(=O)O)cc1Oc1ccc(NC(=O)C(C)(C)C)cc1CSC(C)(C)C [Compound 2, sodium salt]       AUC         1980

---

- PROCEDURE_SUMMARY: Capsule formulation pharmacokinetics in male Beagle dogs
- Assay type: in vivo
- CONDITION_DESCRIPTION: male, Beagle, in vivo, po; dog, fasted, Capsule, 5.6 mg/kg
Structures can show the parent of a compound that is named as a salt.
ENDPOINT: Tmax (h)

> print(dat)
                                   molecule  assay.value
1  COc1ccc(CC(=O)O)cc1Oc1ccc(NC(=O)C(C)(C)C)cc1CSC(C)(C)C [Compound 2, sodium salt]          2.1
